Where do these numbers come from? They come from patent US20250206732A1.

molecular target: AsPC-1 HiBiT-KRASG12D (Homo sapiens, UniProt P01116, G12D); construct: insert the HiBiT tag onto the N-terminus of one or more of the endogenous KRAS alleles; endogenous in cells; host or cells: AsPC-1 (ATCC CRL-1682), CRISPR-Cas9 knock-in clone, one tagged allele; assay: HiBiT degradation assay (G12D), AsPC-1 HiBiT-KRASG12D cells; type: cell-based; conditions: AsPC-1 HiBiT-KRASG12D cells, 24 hours treatment, HiBiT luminescence
Sequence (P01116 1-188 isoform P01116-2 G12D): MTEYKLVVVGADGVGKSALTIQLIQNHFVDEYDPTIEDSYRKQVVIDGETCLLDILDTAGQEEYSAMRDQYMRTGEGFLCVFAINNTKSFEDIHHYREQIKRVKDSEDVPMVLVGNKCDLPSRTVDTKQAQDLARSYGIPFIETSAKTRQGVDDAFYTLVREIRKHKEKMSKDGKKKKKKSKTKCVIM
Quick reference: DC50 of the listed items.
ASSAY METRIC: DC50

Cc1ncsc1-c1ccc([C@H](C)NC(=O)[C@@H]2C[C@@H](O)CN2C(=O)[C@@H](c2cc(OCC3CCN(CCOc4nc(N5CC6CCC(C5)N6)c5cnc(-c6cc(O)cc7ccccc67)c(F)c5n4)CC3)no2)C(C)C)cc1: 600 to 1000 nM
CCc1cccc2cc(O)cc(-c3ncc4c(N5CC6CCC(C5)N6)nc(OCCN5CCC(CC6CN(c7cc([C@H](C(=O)N8C[C@H](O)C[C@H]8C(=O)N[C@@H](C)c8ccc(-c9scnc9C)cc8)C(C)C)on7)C6)CC5)nc4c3F)c12: < 600 nM
CCc1cccc2cc(O)cc(-c3ncc4c(N5CC6CCC(C5)N6)nc(OC[C@@H]5CC[C@@H](COC(=O)N6CCN(c7cc([C@H](C(=O)N8C[C@H](O)C[C@H]8C(=O)N[C@@H](C)c8ccc(-c9scnc9C)cc8)C(C)C)on7)CC6)N5C)nc4c3F)c12: < 600 nM
CCc1cccc2cc(O)cc(-c3ncc4c(N5C[C@H]6CC[C@@H](C5)N6)nc(OCCN5CCC(C)(CN6CCN(c7cc([C@@H](C(=O)N8C[C@H](O)C[C@H]8C(=O)N[C@@H](C)c8ccc(-c9scnc9C)cc8)C(C)C)on7)CC6)CC5)nc4c3F)c12: 1000 to 3000 nM

====

target: AsPC-1 HiBiT-KRASG12D (Homo sapiens, UniProt P01116, G12D); construct: insert the HiBiT tag onto the N-terminus of one or more of the endogenous KRAS alleles; endogenous in cells; host or cells: AsPC-1 (ATCC CRL-1682), CRISPR-Cas9 knock-in clone, one tagged allele; assay: HiBiT degradation assay (G12D), AsPC-1 HiBiT-KRASG12D cells; assay type: cell-based; conditions: AsPC-1 HiBiT-KRASG12D cells, 24 hours treatment, HiBiT luminescence
ASSAY METRIC: DC50

C#Cc1c(F)ccc2cccc(-c3ncc4c(N5CC6CCC(C5)N6)nc(OC[C@@]56CCCN5[C@H](COc5cc([C@@H](C(=O)N7C[C@H](O)C[C@H]7C(=O)N[C@@H](C)c7ccc(-c8scnc8C)cc7)C(C)C)on5)CC6)nc4c3F)c12 [Compound 51]: > 3 µM
CCc1cccc2cc(O)cc(-c3ncc4c(N5CC6CCC(C5)N6)nc(OCCN5CC[C@@H]6CN(c7cc([C@H](C(=O)N8C[C@H](O)C[C@H]8C(=O)N[C@@H](C)c8ccc(-c9scnc9C)cc8)C(C)C)on7)C[C@@H]6C5)nc4c3F)c12 (relative stereo) [Compound 71]: < 0.6 µM
CCc1cccc2cc(O)cc(-c3ncc4c(N5CC6CCC(C5)N6)nc(OCCC5CCN(CC6CN(c7cc([C@@H](C(=O)N8C[C@H](O)C[C@H]8C(=O)N[C@@H](C)c8ccc(-c9scnc9C)cc8)C(C)C)on7)C6)CC5)nc4c3F)c12 [Compound 219]: 1 to 3 µM
C#Cc1c(F)ccc2cc(O)cc(-c3ncc4c(N5CC6CCC(C5)N6)nc(OCCN5CCC(CC6CCN(c7cc([C@H](C(=O)N8C[C@H](O)C[C@H]8C(=O)N[C@@H](C)c8ccc(-c9scnc9C)cc8)C(C)C)on7)CC6)CC5)nc4c3F)c12 (relative stereo) [Compound 307]: < 0.6 µM
